Observed Property: IC50 (nM)
Expressed in nM, but write only the number.

Enquiry: API: value(readout=IC50, system=Acetylcholinesterase (Electrophorus electricus, UniProt O42275)) for record COc1ccc2cc3[n+](cc2c1OCCCn1cc(-c2ccccc2)nn1)CCc1cc2c(cc1-3)OCO2
Return: 310

Enquiry: API: value(readout=IC50, system=Acetylcholinesterase (Electrophorus electricus, UniProt O42275)) for record COc1ccc2cc3[n+](cc2c1OCCCCn1cc(-c2ccccc2)nn1)CCc1cc2c(cc1-3)OCO2
Return: 1320

Enquiry: API: value(readout=IC50, system=Acetylcholinesterase (Electrophorus electricus, UniProt O42275)) for record CCCN(CCC)c1cn(CCCCOc2c(OC)ccc3cc4[n+](cc23)CCc2cc3c(cc2-4)OCO3)nn1
Return: 270

Enquiry: API: value(readout=IC50, system=Acetylcholinesterase (Electrophorus electricus, UniProt O42275)) for record CCCCN(CCCC)c1cn(CCCCOc2c(OC)ccc3cc4[n+](cc23)CCc2cc3c(cc2-4)OCO3)nn1
Return: 469

----------
assay: Ratio of IC50 for equine serum Butyrylcholinesterase to IC50 for electric eel Acetylcholinesterase
Observed Property: Ratio IC50

Enquiry: Need Ratio IC50, item CCCCN(CCCC)c1cn(CCCCOc2c(OC)ccc3cc4[n+](cc23)CCc2cc3c(cc2-4)OCO3)nn1
Return: 11.6

Enquiry: Need Ratio IC50, item CCCN(CCC)c1cn(CCCCOc2c(OC)ccc3cc4[n+](cc23)CCc2cc3c(cc2-4)OCO3)nn1
Return: 17.7

Enquiry: Need Ratio IC50, item CCCN(CCC)c1cn(CCCOc2c(OC)ccc3cc4[n+](cc23)CCc2cc3c(cc2-4)OCO3)nn1
Return: 11.3

Enquiry: Need Ratio IC50, item COc1ccc2cc3[n+](cc2c1OCCCn1cc(-c2ccccc2)nn1)CCc1cc2c(cc1-3)OCO2
Return: 7.13

Enquiry: Need Ratio IC50, item COc1ccc2cc3[n+](cc2c1OCCCCn1cc(-c2ccccc2)nn1)CCc1cc2c(cc1-3)OCO2
Return: 1.14

Enquiry: Need Ratio IC50, item CCCCc1cn(CCCOc2c(OC)ccc3cc4[n+](cc23)CCc2cc3c(cc2-4)OCO3)nn1
Return: 24.6

Enquiry: Need Ratio IC50, item CCCCc1cn(CCCCOc2c(OC)ccc3cc4[n+](cc23)CCc2cc3c(cc2-4)OCO3)nn1
Return: 10

Enquiry: Need Ratio IC50, item CCCCN(CCCC)c1cn(CCCOc2c(OC)ccc3cc4[n+](cc23)CCc2cc3c(cc2-4)OCO3)nn1
Return: 8.48

----------
assay: Inhibition of amyloid-beta (1 to 42) aggregation at 20 uM after 48 hrs by fluorescence analysis using thioflavin T
Class true (1): inhibition at least 60%. Class false (0): inhibition below 60%.

Enquiry: Confirm if inhibition reported for the compound CCCCc1cn(CCCCOc2c(OC)ccc3cc4[n+](cc23)CCc2cc3c(cc2-4)OCO3)nn1 is 60% or above.
Return: true (1)

Enquiry: Confirm if inhibition reported for the compound CCCN(CCC)c1cn(CCCCOc2c(OC)ccc3cc4[n+](cc23)CCc2cc3c(cc2-4)OCO3)nn1 is 60% or above.
Return: true (1)

Enquiry: Confirm if inhibition reported for the compound CCCCN(CCCC)c1cn(CCCCOc2c(OC)ccc3cc4[n+](cc23)CCc2cc3c(cc2-4)OCO3)nn1 is 60% or above.
Return: true (1)

Enquiry: Confirm if inhibition reported for the compound COc1ccc2cc3[n+](cc2c1OC)CCc1cc2c(cc1-3)OCO2 is 60% or above.
Return: false (0)

----------
molecular target: Acetylcholinesterase (Electrophorus electricus, UniProt O42275); assay: Inhibition of electric eel Acetylcholinesterase
Sequence (O42275 whole entry): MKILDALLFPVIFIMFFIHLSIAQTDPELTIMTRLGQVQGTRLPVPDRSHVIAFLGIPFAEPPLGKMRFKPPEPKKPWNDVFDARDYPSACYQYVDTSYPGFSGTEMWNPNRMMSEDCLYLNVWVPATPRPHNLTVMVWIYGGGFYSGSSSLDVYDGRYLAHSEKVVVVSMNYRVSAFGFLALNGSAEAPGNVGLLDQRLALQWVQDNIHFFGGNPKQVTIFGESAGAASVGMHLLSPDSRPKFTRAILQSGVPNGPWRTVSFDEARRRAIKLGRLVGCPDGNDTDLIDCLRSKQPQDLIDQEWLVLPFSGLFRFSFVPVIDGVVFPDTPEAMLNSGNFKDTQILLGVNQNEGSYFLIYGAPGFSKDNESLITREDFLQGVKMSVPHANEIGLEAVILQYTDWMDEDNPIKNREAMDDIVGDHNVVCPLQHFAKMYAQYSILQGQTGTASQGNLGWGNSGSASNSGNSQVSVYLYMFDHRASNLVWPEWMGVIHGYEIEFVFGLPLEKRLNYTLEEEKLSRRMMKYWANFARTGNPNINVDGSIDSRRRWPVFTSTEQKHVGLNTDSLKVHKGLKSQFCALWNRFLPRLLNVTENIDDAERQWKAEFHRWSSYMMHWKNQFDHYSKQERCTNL
Observed Property: pIC50
Friendly reminder that pIC50 comes from taking -log10 of the concentration in mol/L.

Enquiry: Need pIC50, item CCCCc1cn(CCCOc2c(OC)ccc3cc4[n+](cc23)CCc2cc3c(cc2-4)OCO3)nn1
Return: 6.78

Enquiry: Need pIC50, item CCCCc1cn(CCCCOc2c(OC)ccc3cc4[n+](cc23)CCc2cc3c(cc2-4)OCO3)nn1
Return: 6.70

Enquiry: Need pIC50, item CCCCN(CCCC)c1cn(CCCOc2c(OC)ccc3cc4[n+](cc23)CCc2cc3c(cc2-4)OCO3)nn1
Return: 6.61

Enquiry: Need pIC50, item CCCN(CCC)c1cn(CCCOc2c(OC)ccc3cc4[n+](cc23)CCc2cc3c(cc2-4)OCO3)nn1
Return: 6.85

----------
biological target: Butyrylcholinesterase (Equus caballus, UniProt Q9N1N9); experiment: Inhibition of equine serum Butyrylcholinesterase
Sequence (Q9N1N9 whole entry): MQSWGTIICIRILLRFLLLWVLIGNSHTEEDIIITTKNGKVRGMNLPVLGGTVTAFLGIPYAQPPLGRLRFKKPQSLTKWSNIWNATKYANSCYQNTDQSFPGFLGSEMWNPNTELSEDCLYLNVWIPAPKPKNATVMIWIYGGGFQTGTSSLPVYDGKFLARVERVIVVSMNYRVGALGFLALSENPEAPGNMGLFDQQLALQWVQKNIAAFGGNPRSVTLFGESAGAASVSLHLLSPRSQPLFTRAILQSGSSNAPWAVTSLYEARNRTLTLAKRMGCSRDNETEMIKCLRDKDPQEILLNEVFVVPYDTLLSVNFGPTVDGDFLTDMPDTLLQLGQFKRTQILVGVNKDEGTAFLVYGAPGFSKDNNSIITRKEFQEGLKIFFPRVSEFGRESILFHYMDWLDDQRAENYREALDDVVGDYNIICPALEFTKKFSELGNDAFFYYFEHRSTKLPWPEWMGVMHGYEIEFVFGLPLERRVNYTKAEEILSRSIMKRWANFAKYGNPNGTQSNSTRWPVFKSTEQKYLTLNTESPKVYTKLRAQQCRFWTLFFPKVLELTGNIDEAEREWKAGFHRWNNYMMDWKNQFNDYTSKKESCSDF
Observed Property: pIC50
Friendly reminder that pIC50 comes from taking -log10 of the concentration in mol/L.

Enquiry: API: value(readout=pIC50, system=Butyrylcholinesterase (Equus caballus, UniProt Q9N1N9)) for record CCCN(CCC)c1cn(CCCOc2c(OC)ccc3cc4[n+](cc23)CCc2cc3c(cc2-4)OCO3)nn1
Return: 5.80

Enquiry: API: value(readout=pIC50, system=Butyrylcholinesterase (Equus caballus, UniProt Q9N1N9)) for record CCCCc1cn(CCCOc2c(OC)ccc3cc4[n+](cc23)CCc2cc3c(cc2-4)OCO3)nn1
Return: 5.39

Enquiry: API: value(readout=pIC50, system=Butyrylcholinesterase (Equus caballus, UniProt Q9N1N9)) for record CCCN(CCC)c1cn(CCCCOc2c(OC)ccc3cc4[n+](cc23)CCc2cc3c(cc2-4)OCO3)nn1
Return: 5.32

Enquiry: API: value(readout=pIC50, system=Butyrylcholinesterase (Equus caballus, UniProt Q9N1N9)) for record COc1ccc2cc3[n+](cc2c1OCCCCn1cc(-c2ccccc2)nn1)CCc1cc2c(cc1-3)OCO2
Return: 5.82

Enquiry: API: value(readout=pIC50, system=Butyrylcholinesterase (Equus caballus, UniProt Q9N1N9)) for record CCCCN(CCCC)c1cn(CCCOc2c(OC)ccc3cc4[n+](cc23)CCc2cc3c(cc2-4)OCO3)nn1
Return: 5.69

Enquiry: API: value(readout=pIC50, system=Butyrylcholinesterase (Equus caballus, UniProt Q9N1N9)) for record COc1ccc2cc3[n+](cc2c1OCCCn1cc(-c2ccccc2)nn1)CCc1cc2c(cc1-3)OCO2
Return: 5.66

Enquiry: API: value(readout=pIC50, system=Butyrylcholinesterase (Equus caballus, UniProt Q9N1N9)) for record CCCCN(CCCC)c1cn(CCCCOc2c(OC)ccc3cc4[n+](cc23)CCc2cc3c(cc2-4)OCO3)nn1
Return: 5.26

Enquiry: API: value(readout=pIC50, system=Butyrylcholinesterase (Equus caballus, UniProt Q9N1N9)) for record CCCCc1cn(CCCCOc2c(OC)ccc3cc4[n+](cc23)CCc2cc3c(cc2-4)OCO3)nn1
Return: 5.69
